- experimental_target: Nuclear receptor subfamily 1 group I member 2 (Homo sapiens)
- Sequence (O75469 whole entry): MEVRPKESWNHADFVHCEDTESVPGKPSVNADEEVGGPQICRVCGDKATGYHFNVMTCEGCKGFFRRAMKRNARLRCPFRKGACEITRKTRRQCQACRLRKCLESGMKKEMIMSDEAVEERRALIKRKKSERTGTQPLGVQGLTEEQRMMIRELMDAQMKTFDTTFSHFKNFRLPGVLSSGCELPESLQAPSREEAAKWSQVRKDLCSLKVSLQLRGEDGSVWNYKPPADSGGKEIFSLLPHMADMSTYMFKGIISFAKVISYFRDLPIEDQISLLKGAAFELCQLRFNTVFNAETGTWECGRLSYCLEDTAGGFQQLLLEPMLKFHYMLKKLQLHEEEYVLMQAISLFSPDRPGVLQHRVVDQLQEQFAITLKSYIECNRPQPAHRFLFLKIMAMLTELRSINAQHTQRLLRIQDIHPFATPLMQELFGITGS
- test_name: Activation of PXR (unknown origin)
Classification by EC50 follows these ranges: class 0 (below 5 µM), class 1 (5 µM to below 10 µM), class 2 (10 µM or more)

Data request: Which bin, given its EC50, does "CCOc1ccccc1C(=O)Nc1cccc2c1C(=O)N(CC1CC1)C2" occupy?
Data returned: class 0

Data request: Which bin, given its EC50, does "Cc1nnc(-c2ccc(-c3cccc4c3C(=O)N([C@H](C3CC3)C(C)(C)O)C4)cc2)o1" occupy?
Data returned: class 2

Data request: Which bin, given its EC50, does "Cc1nnc(-c2ccc(-c3c(F)c(F)cc4c3C(=O)N([C@H](C3CC3)C(C)(C)O)C4)cc2)o1" occupy?
Data returned: class 1

Data request: Which bin, given its EC50, does "Cc1nnc(-c2ccc(-c3c(F)cc(F)c4c3C(=O)N([C@@H](C(C)(C)O)C(F)(F)F)C4)cc2)o1" occupy?
Data returned: class 2

Data request: Which bin, given its EC50, does "Cc1nnc(-c2ccc(-c3c(F)cc(F)c4c3C(=O)N([C@H](C3CC3)C(C)(C)O)C4)cc2)o1" occupy?
Data returned: class 0

Data request: Which bin, given its EC50, does "Cc1nnc(-c2ccc(-c3ccc(F)c4c3C(=O)N([C@H](C3CC3)C(C)(C)O)C4)cc2)o1" occupy?
Data returned: class 1

Data request: Which bin, given its EC50, does "CN1Cc2cc(-c3cccc4c3C(=O)N([C@H](C3CC3)C(C)(C)O)C4)ccc2C1=O" occupy?
Data returned: class 2

Data request: Which bin, given its EC50, does "Cc1nnc(-c2ccc(-c3c(F)ccc4c3C(=O)N([C@H](C3CC3)C(C)(C)O)C4)cc2)o1" occupy?
Data returned: class 1

Data request: Which bin, given its EC50, does "Cc1nnc(-c2ccc(-c3c(F)c(F)cc4c3C(=O)N([C@@H](C(C)(C)O)C(F)(F)F)C4)cc2)o1" occupy?
Data returned: class 2

Data request: Which bin, given its EC50, does "Cc1nnc(-c2ccc(-c3cc(F)cc4c3C(=O)N([C@H](C3CC3)C(C)(C)O)C4)cc2)o1" occupy?
Data returned: class 2
